Origin of the recorded values: patent US20250270222A1

- measured target: AAK1 (amino acids T27-A365) (Homo sapiens (Human), UniProt Q2M2I8)
- Sequence (Q2M2I8 27-365): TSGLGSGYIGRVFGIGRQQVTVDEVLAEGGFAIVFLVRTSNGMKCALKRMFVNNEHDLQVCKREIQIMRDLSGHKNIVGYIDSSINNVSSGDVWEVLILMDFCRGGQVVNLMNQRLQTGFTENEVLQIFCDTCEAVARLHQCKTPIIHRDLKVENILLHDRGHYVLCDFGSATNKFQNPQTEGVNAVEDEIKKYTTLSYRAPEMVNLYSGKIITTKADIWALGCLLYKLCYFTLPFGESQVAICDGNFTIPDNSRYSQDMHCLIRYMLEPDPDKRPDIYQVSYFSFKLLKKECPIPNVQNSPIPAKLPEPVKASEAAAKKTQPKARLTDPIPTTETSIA
- experiment summary: AAK1 pSENs assay
- Type: biochemical
- settings: ratio of AAK1 pSENs activity to GAK pSENs activity
assay endpoint: AAK1:GAK pSENs Selectivity

The cases that follow already have their AAK1:GAK pSENs Selectivity on record.
molecule	recorded value
CC1(OC(=O)N2CCN(c3ccn4ncc(-c5ccc(C(N)=O)cc5)c4n3)CC2)COC1 [Compound I-3]	B (B: 0.016-0.075)
CC1(OC(=O)N2CCN(c3ccn4ncc(-c5cccnc5OCC5COC5)c4n3)CC2)COC1 [Compound I-20]	D (D: 0.16-1.00)
O=C(O[C@@H]1CC(=O)N(C2CCNCC2)C1)N1CCN(c2ccn3ncc(-c4cccnc4OC4CC4)c3n2)CC1 [Compound I-33]	D (D: 0.16-1.00)
CN(CCNc1ccn2ncc(-c3cccnc3OC3CC3)c2n1)C(=O)O[C@]1(C)CCNC1 [Compound I-61]	B (B: 0.016-0.075)
CN1C[C@@H](OC(=O)N2CCN(c3nc4c(-c5cccnc5OC5CCCC5)cnn4cc3F)CC2)CC1=O [Compound I-121]	B (B: 0.016-0.075)
C[C@]1(OC(=O)N2CCN(c3ccn4ncc(-c5cccnc5OC5CC5)c4n3)CC2)CCNC1 (single isomer, unassigned) [Compound I-13]	B (B: 0.016-0.075)

Now examine the next entry.
Query string: Lab note: need AAK1:GAK pSENs Selectivity with AAK1 (amino acids T27-A365) (Homo sapiens (Human), UniProt Q2M2I8) for entry CC1(OC(=O)N2CCN(c3ccn4ncc(-c5cccnc5OCC5CCC5)c4n3)CC2)COC1 [Compound I-19] , please look it up.
Result string: D (D: 0.16-1.00)
